# Assay Overview: Estimated solubility measurement in selected solvents at room temperature
# Format: physicochemical
# Stated Conditions: thermodynamic from solid, other selected solvents
Quantity: solubility

Query: Bench note: what solubility did CC(C)c1cnn2ccc(-c3ccnc(Nc4ccc(N5CC[C@H](N(C)C)CC5=O)cn4)n3)cc12 show?
Result: < 1000 µg/mL

* * *

# Assay Overview: Estimated solubility measurement in selected solvents at room temperature
# Assay type: physicochemical
# Stated Conditions: organic solvent or mixture, thermodynamic from solid, DCM
Quantity: solubility

Query: Bench note: what solubility did CC(C)c1cnn2ccc(-c3ccnc(Nc4ccc(N5CC[C@H](N(C)C)CC5=O)cn4)n3)cc12 show?
Result: > 120 mg/mL
